Provenance of the data: patent US20030232009A1

Target: T1, Human 20.2 peptide (human)
T1 construct: synthetic peptide from the RB exon
T1 peptide: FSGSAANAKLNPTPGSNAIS
Assay: recombinant antibody on peptide
Experimental Readout: binding result

AB-CD45RB-XG2-648 (antibody, human IgG2, V domains shown, recombinant human IgG2 kappa; also called sc648) VH: QVQLVESGGGLVKPGGSLRLSCAASGFTFNVYYMNWIRQAPGKGLEWVSYISTSSSAIYYADSVKGRFTISRDNAKNSLYLQMNSLRAEDTAVYYCARRTGSTTVFDYWGQGTLVTVSS VL: EIVLTQSPATLSVSPGERATLSCRASQSINNNLAWYQQKPGQAPRLLIYGASTRATGIPAKFSGSGSGTEFTLTISSLQSENFAVYYCQQYNKWPLTFGGGTKVEIK : no binding
AB-CD45RB-XG2-324 (antibody, human IgG2, V domains shown, recombinant human IgG2 kappa; also called sc324; 39E11 (sc324)) VH: QVQLVESGGGVVQPGRSLRLSCAASGFTFSKFGMHWVRQAPDKGLEWVAVIWYDGSYKYYADSVKGRFTISRDNSKNTLYLQMNSLRAEDTAAYYCARGGGSFDYWGQGTLVTVSS VL: DIVMTQTPLSLSVTPGQPASISCKSSQSLLHSDGKTFLYWYLQKPGQPPQLLIYEVSNRFSGVPDRFSGSGSGIDFTLKISRVEAEDVGVYYCMQSIQFPITFGQGTRLEIK : no binding
